// PBM binding z-score lookup, one value per entry
Test system: RARa homodimer (NR concentration 270 nM)
Test: PBM binding z-score (relative to random genomic background probes); higher = stronger binding; sequences stand for … in GC…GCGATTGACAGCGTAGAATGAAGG

| residue_codes | PBM binding z-score |
| --- | --- |
| CCTCGGAGGTCAGAAGGTCAGAGCTGTCCGCTTT | 0.835 |
| CTATGTAGGTTCAGGGGGTCATTCAGTTTGAAAG | 2.03 |
| GCTGCTAGGTCAGGTTGGTCAGCTAACGGGTACG | -0.285 |
| CAAACTAGGTCACAGGGGTCAAAGTCCGTGCGTA | 1.96 |
| CAAACTAGGTCAAAGGTCAAAGACGAGCCAACCA | 4.59 |
| CCGACTGGGTCAAAGGTTACCATACTCAGTACGA | 0.785 |
| ATAGAAAGGTCGAAGGTGAGTATACCCACCCGAA | 0.667 |
| TCGAGTAGGTTTCGGGGGCATTCAGGGATGAAGA | 0.713 |
| TAGCCTAGGTCATGCGGGTCAGTATAGTGTCGGC | -0.237 |
| TCGAGTAGGTTACGGGGGCGTTCAGGGATGAAGA | 0.56 |
| TCGAGTAGGTTACGGGGGCAATCAGGGATGAAGA | -0.0158 |
| CCGAGTAGGTTACGAGGGAGCATTCAGTGCGAAT | -0.145 |
| CCTACTGGGCCAAAGGACATTGATTCCAATGCTC | -0.235 |
| CCTACGGGGCCAAAGGTCATTGATTCCAATGCTC | 2.51 |
| TCTAGTTGGTGACGGAGGTCACACACGACGGGTA | 0.681 |
| CCGAGTAGGTTACGAAGGGGCATTCAGTGCGAAT | 0.184 |
| GATACAGGGTCAGCTAGAGGGCAGAGTATGGAAA | 1.68 |
| AGTCAAAGTTCAGGACGAGGTCACGTAAAGCACG | 2.01 |
| CTATGTAGGTTAAGGGGGTCATTCGGTTTGAAAG | 1.33 |
| TTACCAAGGTAAAAGGTCGTTGATGCACGCCTTG | 0.101 |
| ATCTCTAGGTAAAGGTCAGTGAAAGATCGATAGA | 2.88 |
| TCTTGTAGATCAAAGGTTAAGACAGCCGAAGCCT | 0.276 |
| CCGAGTAGGTTACGAGGTGGCATTCAGTGCGAAT | -0.0316 |
| CGAACTAGGTCAAAGGACAGTGAAAGGCGACGTA | -0.0827 |
| CGTCTAAGTTCAAGGTAACGTAACAGAAAGCAGC | 0.625 |
| AGTCAAAATTCACTAGGTAACGTAAGATTCAGCT | 1.44 |

====

Test system: THRa homodimer (NR concentration 90 nM)
Assay: PBM binding z-score (relative to random genomic background probes); higher = stronger binding; sequences stand for … in GC…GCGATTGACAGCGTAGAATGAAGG
measurement_kind: PBM binding z-score

| residue_codes | measurement_kind | experimental_result |
| --- | --- | --- |
| CGAACTAGGTCACAAGGACAGTGAAGAGGTTGGA | PBM binding z-score | 1.7 |
| AGTCAAATTTCACTAGGTAACGTAAGATTCAGCT | PBM binding z-score | 0.471 |
| CGTTCAAGGTCATAGGAGGTCAGTGAAGACAGAT | PBM binding z-score | 3.63 |
| CTCGAAAGGTCGGTTGAGGTGACTATACGGATAA | PBM binding z-score | 1.68 |
| TAGCCTAGGTCATTGTGCCAGTATAGTACGCATC | PBM binding z-score | 1.03 |
| CCTTACGGGTCACTGACAGCTTATAGCATTTGGA | PBM binding z-score | 0.275 |
| ATATGTAGGTAACATCCGGGTCATTCAGGCTATG | PBM binding z-score | 2.74 |
| TAGCCTAGGTTATGCGGGCCAGTATAGTGTCGGC | PBM binding z-score | -0.669 |
| CCTACTGGGCCAAAGGTCAGTGATTCCAATGCTC | PBM binding z-score | 0.381 |
| CCTTACGGGTCAGGGTTATAGCACGGGTGGTACG | PBM binding z-score | 0.154 |
| CCGACTGGGGCAAAGGTCACCATACTCAGTACGA | PBM binding z-score | 1.04 |
| CGAGCTAGGTCACCAGGACAGTGAAGAGGTTGGA | PBM binding z-score | 1.65 |
